Cited source: patent US20160075790A1

# assay system: T1, human CD40L monomer triple mutant (T211E, S222Y, H224K, [108-261]) (human, UniProt P29965 108-261)
# T1 construct: also called monomeric human CD40L
# T1 chain: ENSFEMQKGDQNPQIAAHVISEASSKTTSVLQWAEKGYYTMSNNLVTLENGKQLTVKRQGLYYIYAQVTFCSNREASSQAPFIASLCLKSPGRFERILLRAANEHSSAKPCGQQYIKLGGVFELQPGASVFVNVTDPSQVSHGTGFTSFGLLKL
# test: SPR; dAb-CT-long captured on anti-human IgG Fc surface, CD40L monomer as analyte

binder: 2h572-634-CT Long Fc (Fc fusion, not shown: linker and CT Long Fc (CT-L2)) EVQLLESGGGLVQPGGSLRLSCAASGFTFNWELMGWARQAPGKGLEWVSGIEGPGDVTYYADSVKGRFTISRDNSKNTLYLQMNSLRAEDTAVYYCVKVGKDSRSDYRGQGTLVTVSS
binding result: no binding

binder: 2h572-635-CT Long Fc (Fc fusion, not shown: linker and CT Long Fc (CT-L2)) EVQLLESGGGLVQPGGSLRLSCAASGFTFNWELMGWARQAPGKGLEWVSGIEGPGDVTYYADSVKGRFTISRDNSKNTLYLQMNSLRAEDTAVYYCVKVGKDSKSDYRGQGTLVTVSS
binding result: no binding
